Below, each entry is listed with its recorded pKd.
molecular target: ARHGEF12, Q9NZN5-2; assay: holdup assay; design: key: below the threshold = too weak to quantify, mostly under pKd 3.1 to 4; conditions: plain residues with an end cap or a label only (N-terminal biotin on a linker: ado-ado)
Sequence (Q9NZN5 other isoform, or with tags, fused parts or gaps): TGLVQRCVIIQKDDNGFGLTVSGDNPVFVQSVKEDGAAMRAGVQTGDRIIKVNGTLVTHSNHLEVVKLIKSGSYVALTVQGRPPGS
READOUT NAME: pKd

[
  {
    "BINDER": "SRPHTNETSL [MCC, P23508]",
    "READOUT NAME": "pKd",
    "VALUE": 4.68
  },
  {
    "BINDER": "GTMFLRETSL [GUCY1A2, P33402]",
    "READOUT NAME": "pKd",
    "VALUE": 4.93
  },
  {
    "BINDER": "IKLETKKTKL [SLC15A2, Q16348]",
    "READOUT NAME": "pKd",
    "VALUE": 4.69
  },
  {
    "BINDER": "IQISELETNV [SLC1A7, O00341]",
    "READOUT NAME": "pKd",
    "VALUE": 3.71
  },
  {
    "BINDER": "QQGLLPHSSC [TYRO3, Q06418]",
    "READOUT NAME": "pKd",
    "VALUE": 4.18
  },
  {
    "BINDER": "GQNMTVSVVI [PRLHR, P49683]",
    "READOUT NAME": "pKd",
    "VALUE": 4.13
  },
  {
    "BINDER": "DYSNLRETDI [ADRA1D, P25100]",
    "READOUT NAME": "pKd",
    "VALUE": 4.03
  },
  {
    "BINDER": "PEKVSNTTVV [IGSF5, Q9NSI5]",
    "READOUT NAME": "pKd",
    "VALUE": 4.21
  },
  {
    "BINDER": "ADEMICITTL [CACNA1D, Q01668]",
    "READOUT NAME": "pKd",
    "VALUE": 6.18
  },
  {
    "BINDER": "PLATCDETSI [SEMA4F, O95754]",
    "READOUT NAME": "pKd",
    "VALUE": 3.81
  },
  {
    "BINDER": "TKDKVQETQI [LRRC4, Q9HBW1]",
    "READOUT NAME": "pKd",
    "VALUE": 4.57
  },
  {
    "BINDER": "EAVTVESTSL [SLC22A11, Q9NSA0]",
    "READOUT NAME": "pKd",
    "VALUE": 5.17
  },
  {
    "BINDER": "KSRPENGTVC [TMEM178B, H3BS89]",
    "READOUT NAME": "pKd",
    "VALUE": 3.65
  },
  {
    "BINDER": "PDSYHRRDFW [U2AF2, P26368]",
    "READOUT NAME": "pKd",
    "VALUE": 3.52
  },
  {
    "BINDER": "HLSTRQGTCV [ATRNL1, Q5VV63]",
    "READOUT NAME": "pKd",
    "VALUE": 3.51
  },
  {
    "BINDER": "QRYPGNQTTC [CCL24, O00175]",
    "READOUT NAME": "pKd",
    "VALUE": 4.15
  },
  {
    "BINDER": "THHRKIHTRV [ZNF599, Q96NL3]",
    "READOUT NAME": "pKd",
    "VALUE": 4.3
  }
]
